tested on: Bacillus subtilis; assay: Antimicrobial activity against Bacillus subtilis at 75 ug/ml by agar diffusion assay; format: functional
Criterion: inhibition zone (IZ) meeting or surpassing 20 mm. Met: 1. Not met: 0.

COC(=O)[C@]12Cc3c([nH]c4ccccc34)[C@@H](c3ccc(OC)cc3)N1[C@@H]1c3c(ccc4ccccc34)OC[C@@H]1C2 : 0
COC(=O)[C@]12Cc3c([nH]c4ccccc34)[C@@H](c3ccc(OC)cc3)N1[C@@H]1c3ccccc3OC[C@@H]1C2 : 0
CN(C)[C@@H]1C(O)=C(C(N)=O)C(=O)[C@@]2(O)C(O)=C3C(=O)c4c(O)cccc4[C@@](C)(O)[C@H]3C[C@@H]12 : 1
COC(=O)[C@]12Cc3c([nH]c4ccccc34)[C@@H](c3ccc(Cl)cc3)N1[C@@H]1c3c(ccc4ccccc34)OC[C@@H]1C2 : 1
COC(=O)[C@]12Cc3c([nH]c4ccccc34)[C@@H](c3ccc(C)cc3)N1[C@@H]1c3c(ccc4ccccc34)OC[C@@H]1C2 : 0
COC(=O)[C@]12Cc3c([nH]c4ccccc34)[C@@H](c3cccc([N+](=O)[O-])c3)N1[C@@H]1c3ccccc3OC[C@@H]1C2 : 1
COC(=O)[C@]12Cc3c([nH]c4ccccc34)[C@@H](c3ccc(Cl)cc3)N1[C@@H]1c3ccccc3OC[C@@H]1C2 : 1
COC(=O)[C@@]1(Cc2c[nH]c3ccccc23)C[C@H]2COc3ccc4ccccc4c3[C@H]2N1 : 0
COC(=O)[C@]12Cc3c([nH]c4ccccc34)[C@@H](c3ccc(C)cc3)N1[C@@H]1c3ccccc3OC[C@@H]1C2 : 0
COC(=O)[C@]12Cc3c([nH]c4ccccc34)[C@@H](c3cccc([N+](=O)[O-])c3)N1[C@@H]1c3c(ccc4ccccc34)OC[C@@H]1C2 : 1
